molecular target: menin protein (Homo sapiens (Human), UniProt O00255); assay: biochemical; format: binding; details: FP competitive binding; menin protein 4 nM, FAM-MM2 probe 2 nM; read-out: Menin Binding Affinity IC50
Sequence (O00255 whole entry): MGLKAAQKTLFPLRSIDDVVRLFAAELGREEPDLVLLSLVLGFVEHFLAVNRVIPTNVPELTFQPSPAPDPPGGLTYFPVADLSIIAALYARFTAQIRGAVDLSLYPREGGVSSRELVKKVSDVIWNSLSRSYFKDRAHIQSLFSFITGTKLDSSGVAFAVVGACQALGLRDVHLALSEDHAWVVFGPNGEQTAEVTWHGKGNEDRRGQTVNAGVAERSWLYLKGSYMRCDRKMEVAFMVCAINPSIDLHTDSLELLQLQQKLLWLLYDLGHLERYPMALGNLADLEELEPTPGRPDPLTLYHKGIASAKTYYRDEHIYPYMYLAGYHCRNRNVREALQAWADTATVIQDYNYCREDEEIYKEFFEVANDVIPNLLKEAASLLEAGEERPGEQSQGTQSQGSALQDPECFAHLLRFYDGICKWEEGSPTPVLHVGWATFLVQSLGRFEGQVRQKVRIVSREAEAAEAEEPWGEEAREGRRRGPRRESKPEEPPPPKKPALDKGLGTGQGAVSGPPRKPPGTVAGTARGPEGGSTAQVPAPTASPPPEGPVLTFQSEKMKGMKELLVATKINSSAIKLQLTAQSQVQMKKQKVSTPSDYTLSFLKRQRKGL
measured_property: IC50 (nM)

1. N#Cc1ccc2c(c1)CCN(C(=O)CN1CCC(C3(C4CCCC4)NCCc4ccccc43)CC1)C2 (centres unmarked)	847
2. CNC(=O)N[C@H]1CCC[C@@H]1C1(C2CCN(CC3CN(c4ccc(S(=O)(=O)c5ccncc5)cc4)C3)CC2)CN(C)Cc2ccccc21 (mixture of isomers)	8
3. CN1Cc2ccccc2C(C2CCCC2)(C2CCN(CC3CN(c4ccc(C#N)cc4)C3)CC2)C1 (centres unmarked)	27
4. CNC(=O)O[C@@H]1CCC[C@H]1C(Cn1ccnc1C)(c1cccc(F)c1)C1CCN(CC2CN(c3ccc(S(=O)(=O)c4cnn(C)c4)cc3)C2)CC1 (mixture of isomers)	49
5. CCN1Cc2ccccc2C(C2CCCC2)(C2CCN(CC3(C)CN(c4ccc(S(=O)(=O)c5ccncc5)cc4)C3)CC2)C1 (centres unmarked)	21
6. CN1COCN([C@H]2CCC[C@@H]2C(C#N)(c2ccccc2)C2CCN(CC3CN(c4ccc(S(=O)(=O)c5ccncc5)cc4)C3)CC2)C1=O (mixture of isomers)	65
7. N#CC(c1ccccc1)(C1CCCC1)C1CCN(CC2CN(c3ccc(S(=O)(=O)c4ccncc4)cc3)C2)CC1 (centres unmarked)	2000
8. N#CC(c1ccccc1)(C1CCN(CC2CN(c3ccc(S(=O)(=O)c4ccccc4)cc3)C2)CC1)[C@H]1CCC[C@@H]1OC(N)=O (mixture of isomers)	14
9. CS(=O)(=O)CCC(C#N)(c1ccccc1)C1CCN(CCCOc2ccc(C#N)cc2)CC1 (centres unmarked)	75300
10. CN(C)C(=O)N[C@@H]1CCC[C@H]1C(C#N)(c1ccccc1)C1CCN(CC2CN(c3ccc(S(=O)(=O)c4ccncc4)cc3)C2)CC1 (mixture of isomers)	1200
11. CCc1cnccc1S(=O)(=O)c1ccc(N2CC(CN3CCC(C4(C5CCCC5)CN(CC)Cc5ccccc54)CC3)C2)cc1 (centres unmarked)	8
12. C=C(C)CC1(C2CCN(CCCOc3ccc(C#N)cc3)CC2)NCCc2ccccc21 (centres unmarked)	3000
13. N#CC(c1ccccc1)(C1CCN(CC2CN(c3ccc(S(=O)(=O)c4ccncc4)cc3)C2)CC1)[C@@H]1CCC[C@H]1OC(=O)N1CCC1 (mixture of isomers)	2000
14. CNC(=O)O[C@@H]1CCC[C@H]1C(CN1CCCC1)(c1ccccc1)C1CCN(CC2CN(c3ccc(S(=O)(=O)c4ccccc4)cc3)C2)CC1 (mixture of isomers)	1400
15. CC(=O)O[C@H]1CCC[C@@H]1C1(C2CCN(CCCOc3ccc(C#N)cc3)CC2)CN(C)Cc2ccc(F)cc21 (mixture of isomers)	31
16. CNC(=O)O[C@H]1CCC[C@@H]1C(Cn1ccnc1)(c1ccccc1)C1CCN(CC2CN(c3ccc(Cl)cc3)C2)CC1 (mixture of isomers)	5
17. O=S(=O)(c1ccc(O[C@H]2C[C@@H](N3CCC(C4(C5CCCC5)NCCc5ccccc54)CC3)C2)cc1)C1CC1 (some centres unmarked)	13100
18. CS(=O)(=O)c1ccc(N2CC(CN3CCC(C4(C5CCCC5)NCCc5ccccc54)CC3)C2)cc1 (centres unmarked)	77
19. CNC(=O)[C@H]1CCC[C@@H]1C(C#N)(c1ccccc1)C1CCN(CC2CN(c3ccc(S(=O)(=O)C4CC4)cc3)C2)CC1 (mixture of isomers)	3200
20. CCN1Cc2ccccc2C(C2CCCC2)(C2CCN(CC3CN(c4ccc(S(=O)(=O)C(F)(F)F)cc4)C3)CC2)C1 (centres unmarked)	15
21. COC(=O)N[C@H]1CCC[C@@H]1C(C#N)(c1ccccc1)C1CCN(CCC#Cc2ccc(C#N)cc2)CC1 (mixture of isomers)	212
22. N#Cc1ccc(OCCCN2CCC(CC3(C4CCCC4)NCCc4ccccc43)CC2)cc1 (centres unmarked)	32700
23. CNC(=O)O[C@@H]1CCC[C@H]1C(C#N)(c1ccccc1)C1CCN(CC2CN(c3ccc(C(F)(F)F)cc3)C2)CC1 (mixture of isomers)	506
24. CNC(=O)O[C@@H]1CCC[C@H]1C(C#N)(c1ccccc1)C1CCN(CC2CN(c3ccc(S(=O)(=O)c4nn(C)cc4Br)cc3)C2)CC1 (mixture of isomers)	160
25. COC(=O)N[C@H]1CCC[C@@H]1C(C#N)(c1ccccc1)C1CCN(CC2CN(c3ccccc3)C2)CC1 (mixture of isomers)	2400
26. Cc1cc(S(=O)(=O)c2ccc(N3CC(CN4CCC(C5(C6=CCCC6)CN(C)Cc6ccccc65)CC4)C3)cc2)ccn1 (centres unmarked)	88
